Source listed as patent US11572359B2.

Tested on: HCT116 (human colon cancer cells)
procedure.text: Tumor cell proliferation inhibition (SRB, 72 hours), HCT116
Assay type: cell-based
particulars: Homo sapiens, HCT-116, 72 h
quantity.name: IC50 (µM)
Give the quantity in µM, number only.

Recorded IC50 (compound C[C@@H]1CN(c2nc(-c3cnc(N)nc3)nc3c2CCN(C(=O)c2cc(Cc4n[nH]c(=O)c5ccccc45)ccc2F)C3)C[C@H](C)O1 [I-12] ): 1.01

Recorded IC50 (compound Nc1ccc(-c2nc3c(c(N4CCOCC4)n2)CCN(C(=O)c2cc(Cc4n[nH]c(=O)c5ccccc45)ccc2F)C3)cn1 [I-2] ): 0.217

Recorded IC50 (compound O=C(c1cc(Cc2n[nH]c(=O)c3ccccc23)ccc1F)N1CCc2c(nc(-c3cccc4[nH]ncc34)nc2N2CCOCC2)C1 [I-8] ): 0.536

###

Give inhibition at 0.1 µM for every item shown.
system.tested: PI3Kα (Homo sapiens, UniProt P42336)
Sequence (P42336 whole entry): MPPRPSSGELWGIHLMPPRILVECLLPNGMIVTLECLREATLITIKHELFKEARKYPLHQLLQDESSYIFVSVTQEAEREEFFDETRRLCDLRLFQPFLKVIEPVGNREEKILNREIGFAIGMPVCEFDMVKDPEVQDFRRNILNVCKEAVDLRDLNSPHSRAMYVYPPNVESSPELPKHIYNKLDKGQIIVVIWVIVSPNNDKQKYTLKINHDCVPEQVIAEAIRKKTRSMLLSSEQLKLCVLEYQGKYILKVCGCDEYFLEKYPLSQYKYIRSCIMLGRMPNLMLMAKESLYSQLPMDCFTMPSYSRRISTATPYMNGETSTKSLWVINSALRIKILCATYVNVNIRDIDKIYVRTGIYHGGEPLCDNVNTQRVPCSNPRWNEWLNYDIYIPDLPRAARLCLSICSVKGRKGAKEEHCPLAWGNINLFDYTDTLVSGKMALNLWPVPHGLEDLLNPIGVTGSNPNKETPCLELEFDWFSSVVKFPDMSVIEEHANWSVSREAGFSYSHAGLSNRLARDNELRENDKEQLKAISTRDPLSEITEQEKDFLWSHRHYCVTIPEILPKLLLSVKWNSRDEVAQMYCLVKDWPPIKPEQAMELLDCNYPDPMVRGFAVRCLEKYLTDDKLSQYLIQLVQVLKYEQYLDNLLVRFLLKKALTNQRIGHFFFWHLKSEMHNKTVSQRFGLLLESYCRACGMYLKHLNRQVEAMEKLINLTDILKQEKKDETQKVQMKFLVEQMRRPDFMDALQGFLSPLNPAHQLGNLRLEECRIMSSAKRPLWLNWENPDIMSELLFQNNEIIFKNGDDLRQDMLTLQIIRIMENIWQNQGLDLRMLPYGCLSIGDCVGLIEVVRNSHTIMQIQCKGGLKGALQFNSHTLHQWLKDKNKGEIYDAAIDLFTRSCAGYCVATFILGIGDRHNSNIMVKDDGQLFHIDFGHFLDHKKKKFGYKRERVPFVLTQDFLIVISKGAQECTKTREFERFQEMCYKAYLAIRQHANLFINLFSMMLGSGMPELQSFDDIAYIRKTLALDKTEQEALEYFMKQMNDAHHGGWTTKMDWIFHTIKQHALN
Sequence (P27986 whole entry partner): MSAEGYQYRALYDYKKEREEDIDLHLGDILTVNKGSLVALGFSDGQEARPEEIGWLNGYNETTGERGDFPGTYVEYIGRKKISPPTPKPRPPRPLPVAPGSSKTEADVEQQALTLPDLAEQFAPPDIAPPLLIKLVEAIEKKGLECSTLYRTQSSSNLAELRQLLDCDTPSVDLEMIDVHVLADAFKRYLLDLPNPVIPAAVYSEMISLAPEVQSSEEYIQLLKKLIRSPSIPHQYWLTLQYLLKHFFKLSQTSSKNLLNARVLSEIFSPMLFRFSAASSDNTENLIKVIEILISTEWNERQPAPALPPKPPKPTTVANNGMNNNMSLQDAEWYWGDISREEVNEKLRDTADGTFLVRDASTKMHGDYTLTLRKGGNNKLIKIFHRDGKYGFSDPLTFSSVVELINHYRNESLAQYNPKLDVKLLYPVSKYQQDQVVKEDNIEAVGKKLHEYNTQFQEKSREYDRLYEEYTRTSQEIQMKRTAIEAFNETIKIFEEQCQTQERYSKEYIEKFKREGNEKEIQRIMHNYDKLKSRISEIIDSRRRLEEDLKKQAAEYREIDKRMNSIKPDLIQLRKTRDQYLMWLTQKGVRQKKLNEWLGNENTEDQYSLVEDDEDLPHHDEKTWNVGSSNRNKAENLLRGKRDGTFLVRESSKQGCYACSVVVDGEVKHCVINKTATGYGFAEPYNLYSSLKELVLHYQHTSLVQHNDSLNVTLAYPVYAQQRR
procedure.text: PI3Kα inhibitory activity at the enzyme level (ADP detection by luciferase method)
Assay type: biochemical
particulars: 100 nM compound; read-out: Inhibition rate on PI3Kα (100 nM)
Give the quantity in %, number only.

Recorded inhibition at 0.1 µM (compound Nc1ccc(-c2nc3c(c(N4CCOCC4)n2)CCN(C(=O)c2cc(Cc4n[nH]c(=O)c5ccccc45)ccc2F)C3)c(F)c1 [I-6] ): 24

Recorded inhibition at 0.1 µM (compound O=C(c1cc(Cc2n[nH]c(=O)c3ccccc23)ccc1F)N1CCc2c(nc(-c3cccc4[nH]ncc34)nc2N2CCOCC2)C1 [I-8] ): 42

Recorded inhibition at 0.1 µM (compound Nc1cc(-c2nc3c(c(N4CCOCC4)n2)CCN(C(=O)c2cc(Cc4n[nH]c(=O)c5ccccc45)ccc2F)C3)ccc1F [I-7] ): 27

Recorded inhibition at 0.1 µM (compound Nc1cc(C(F)(F)F)c(-c2nc3c(c(N4CCOCC4)n2)CCN(C(=O)c2cc(Cc4n[nH]c(=O)c5ccccc45)ccc2F)C3)cn1 [I-3] ): 34

Recorded inhibition at 0.1 µM (compound O=C(c1cc(Cc2n[nH]c(=O)c3ccccc23)ccc1F)N1CCc2c(nc(-c3cccc4[nH]ccc34)nc2N2CCOCC2)C1 [I-10] ): 15

###

Give IC50 for every item shown.
Test system: MDA-MB-468 (human breast cancer cells)
procedure.text: Tumor cell proliferation inhibition (SRB, 72 hours), MDA-MB-468
Assay type: cell-based
particulars: Homo sapiens, MDA-MB-468, 72 h
Give the quantity in nM, number only.

IC50 for MDA-MB-468 (human breast cancer cells) with input O=C(c1cc(Cc2n[nH]c(=O)c3ccccc23)ccc1F)N1CCc2c(nc(-c3cccc4[nH]ncc34)nc2N2CCOCC2)C1 [I-8] equals 1150

IC50 for MDA-MB-468 (human breast cancer cells) with input Nc1ccc(-c2nc3c(c(N4CCOCC4)n2)CCN(C(=O)c2cc(Cc4n[nH]c(=O)c5ccccc45)ccc2F)C3)cn1 [I-2] equals 1340

IC50 for MDA-MB-468 (human breast cancer cells) with input C[C@@H]1CN(c2nc(-c3cnc(N)nc3)nc3c2CCN(C(=O)c2cc(Cc4n[nH]c(=O)c5ccccc45)ccc2F)C3)C[C@H](C)O1 [I-12] equals 1580

###

System: MDA-MB-231 (human breast cancer cells)
procedure.text: Tumor cell proliferation inhibition (SRB, 72 hours), MDA-MB-231
Format: cell-based
particulars: Homo sapiens, MDA-MB-231, 72 h
quantity.name: IC50 (nM)
Give the quantity in nM, number only.

Recorded IC50 (compound C[C@@H]1CN(c2nc(-c3cnc(N)nc3)nc3c2CCN(C(=O)c2cc(Cc4n[nH]c(=O)c5ccccc45)ccc2F)C3)C[C@H](C)O1 [I-12] ): 1130

Recorded IC50 (compound Nc1ccc(-c2nc3c(c(N4CCOCC4)n2)CCN(C(=O)c2cc(Cc4n[nH]c(=O)c5ccccc45)ccc2F)C3)cn1 [I-2] ): 816

Recorded IC50 (compound O=C(c1cc(Cc2n[nH]c(=O)c3ccccc23)ccc1F)N1CCc2c(nc(-c3cccc4[nH]ncc34)nc2N2CCOCC2)C1 [I-8] ): 708
